Test system: HEK-293 cells
Measured Quantity: IC50

Identify IC50 associated with the molecule C[C@]12C[C@@H](O)[C@@H]3C[C@@]1(O[C@@H]1O[C@H](CO)[C@@H](O)[C@H](O)[C@H]1O)[C@@]3(COC(=O)c1ccccc1)C(=O)O2 > 1000 µM

###

Assay Protocol: in vitro
Assay Conditions: human
Measured Quantity: IC50 at 24 h

Identify IC50 at 24 h associated with the compound C[C@@]12C[C@@]3(O)O[C@@H](O1)[C@]1(COC(=O)c4ccccc4)[C@H]3C[C@@]12O[C@@H]1O[C@H](CO)[C@@H](O)[C@H](O)[C@H]1O > 1000 µM
